Field: retained in the aqueous phase. Provide a value for each of the molecules that follow.
- Assay explanation: Partitioning of HSPC and cholesterol into chloroform in the presence of OSI-7904
- Assay type: physicochemical
- Conditions used: first extraction; 17 mg/mL OSI-7904 with ~0.5 mg/mL HSPC:cholesterol mix; 1:3 CHCl3:Aq; shaking 1 hour

Task: # lookup: retained in the aqueous phase of CCCCCCCCCCCCCCCCCC(=O)OC[C@H](COP(=O)([O-])OCC[N+](C)(C)C)OC(=O)CCCCCCCCCCCCCCCCC [DSPC]
Output: ~8%

Task: Would you mind telling me what retained in the aqueous phase value was observed for CCCCCCCCCCCCCCCCCC(=O)O[C@H](COC(=O)CCCCCCCCCCCCCCC)COP(=O)([O-])OCC[N+](C)(C)C [PSPC] ?
Output: ~8%

====

- Assay explanation: Potentiometric titration of OSI-7904 (Sirius Glpka autotitrator), with and without chloroform; solubility
- Assay type: physicochemical
- Conditions used: with aqueous solution present during titration, organic solvent or mixture; from Bjerrum plot; titration of 10 mL 0.33 mM aqueous solution in presence of 5 mL chloroform
Quantity kind: solubility

Task: Need solubility, item Cc1nc2ccc3ccc(CNc4ccc5c(c4)CN([C@@H](CCC(=O)O)C(=O)O)C5=O)cc3c2c(=O)[nH]1 [OSI-7904]
Output: < 400 µg/mL
